Data provenance: patent US20130267494A1

# Tested On: human dopamine transporter (Homo sapiens)
# Construct: expressed in transfected cells
# Assay Details: Inhibitory action on human dopamine transporter ([3H]-dopamine uptake in CHO cells)
# Format: cell-based
# Condition Details: CHO, compound 1 μM; relative to inhibitory activity of 100 μM Nomifensine as 100%; read-out: inhibitory rate (%)
Structures can show the parent of a compound that is named as a salt.
inhibition at 1 µM overview
Experimental Endpoint: inhibition at 1 µM

[
  {
    "Molecule": "OC[C@H](O)[C@H]1OCCNC[C@H]1c1ccc(Cl)c(Cl)c1",
    "Experimental Endpoint": "inhibition at 1 µM",
    "Recorded Measurement": "68%"
  },
  {
    "Molecule": "O=c1[nH]c(-c2ccc(OC[C@@H]3CNCCO[C@H]3c3ccc(Cl)c(Cl)c3)nc2)no1 [Example 87, monohydrochloride]",
    "Experimental Endpoint": "inhibition at 1 µM",
    "Recorded Measurement": "20%"
  },
  {
    "Molecule": "O=C1CCCCN1C[C@@H]1CNCCO[C@H]1c1ccc(Cl)c(F)c1 [Example 376, monohydrochloride]",
    "Experimental Endpoint": "inhibition at 1 µM",
    "Recorded Measurement": "89%"
  },
  {
    "Molecule": "O=c1cccnn1C[C@H]1OCCNC[C@H]1c1ccc(Cl)c(Cl)c1 [Example 481, monohydrochloride]",
    "Experimental Endpoint": "inhibition at 1 µM",
    "Recorded Measurement": "61%"
  }
]

---

inhibition at 1 µM overview
# Tested On: human dopamine transporter (Homo sapiens)
# Construct: expressed in transfected cells
# Assay Details: Inhibitory action on human dopamine transporter ([3H]-dopamine uptake in CHO cells)
# Assay type: cell-based
# Condition Details: CHO, compound 1 μM; relative to inhibitory activity of 100 μM Nomifensine as 100%; read-out: inhibitory rate (%)
Counter-ions that a name gives are not always drawn.

[
  {
    "Compound": "CS(=O)(=O)C[C@@]1(O)CNCCO[C@@H]1c1ccc(Cl)c(F)c1 (racemic) [Example 538, monohydrochloride]",
    "inhibition at 1 µM": "38%"
  },
  {
    "Compound": "O=c1[nH]c(-c2cccnc2O[C@@H]2CNCCO[C@H]2c2ccc(Cl)c(F)c2)no1 [Example 556, monohydrochloride]",
    "inhibition at 1 µM": "71%"
  },
  {
    "Compound": "Cc1nnc(-c2cccnc2O[C@@H]2CNCCO[C@H]2c2ccc(Cl)c(F)c2)[nH]1 [Example 568, monohydrochloride]",
    "inhibition at 1 µM": "100%"
  },
  {
    "Compound": "CC(=O)N[C@H]1CNCCO[C@@H]1c1ccc(Cl)c(Cl)c1 [Example 240, monohydrochloride]",
    "inhibition at 1 µM": "60%"
  }
]

---

# Tested On: human dopamine transporter (Homo sapiens, UniProt Q01959)
# Construct: expressed in transfected cells
# Sequence (Q01959 whole entry): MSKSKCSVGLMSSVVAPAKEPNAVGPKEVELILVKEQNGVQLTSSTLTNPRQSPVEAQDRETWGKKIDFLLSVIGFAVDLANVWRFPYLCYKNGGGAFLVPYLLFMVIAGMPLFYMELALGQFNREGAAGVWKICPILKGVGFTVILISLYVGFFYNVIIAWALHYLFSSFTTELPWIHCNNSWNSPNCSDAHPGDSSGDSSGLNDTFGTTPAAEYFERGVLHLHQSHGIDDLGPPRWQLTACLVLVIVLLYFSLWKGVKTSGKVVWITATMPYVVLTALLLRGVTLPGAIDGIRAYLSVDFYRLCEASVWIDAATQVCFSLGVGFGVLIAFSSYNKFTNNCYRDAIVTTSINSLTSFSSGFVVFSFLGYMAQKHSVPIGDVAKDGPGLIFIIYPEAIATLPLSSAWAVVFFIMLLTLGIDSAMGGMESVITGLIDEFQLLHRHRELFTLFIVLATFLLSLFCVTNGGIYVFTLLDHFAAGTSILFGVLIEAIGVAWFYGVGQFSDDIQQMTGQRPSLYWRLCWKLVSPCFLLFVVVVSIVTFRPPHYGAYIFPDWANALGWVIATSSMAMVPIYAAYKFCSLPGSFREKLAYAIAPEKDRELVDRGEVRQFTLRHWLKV
# Assay Details: Inhibitory action on human dopamine transporter ([3H]-dopamine uptake in CHO cells)
# Format: cell-based
# Condition Details: CHO, compound 1 μM; relative to inhibitory activity of 100 μM Nomifensine as 100%; read-out: inhibitory rate (%)
Where a name gives a salt, the structure may show the parent alone.

[
  {
    "Compound": "O=c1[nH]nc(-c2cccn(C[C@@H]3CNCCO[C@H]3c3ccc(Cl)c(F)c3)c2=O)[nH]1 [Example 379, monohydrochloride]",
    "Tested On": "human dopamine transporter (Homo sapiens, UniProt Q01959)",
    "Output Unit": "%",
    "inhibition at 1 µM": 64
  },
  {
    "Compound": "O=c1[nH]c(-c2cccnc2OC2CNCCOC2c2ccc(Cl)c(Cl)c2)no1 (centres unmarked)",
    "Tested On": "human dopamine transporter (Homo sapiens, UniProt Q01959)",
    "Output Unit": "%",
    "inhibition at 1 µM": 98
  },
  {
    "Compound": "OC[C@H]1CNCCO[C@@H]1c1ccc(Cl)c(F)c1 [Example 302, monohydrochloride]",
    "Tested On": "human dopamine transporter (Homo sapiens, UniProt Q01959)",
    "Output Unit": "%",
    "inhibition at 1 µM": 12
  },
  {
    "Compound": "NC(=O)NC[C@@H]1CNCCO[C@H]1c1ccc(Cl)c(Cl)c1 [Example 152, monofumarate]",
    "Tested On": "human dopamine transporter (Homo sapiens, UniProt Q01959)",
    "Output Unit": "%",
    "inhibition at 1 µM": 59
  },
  {
    "Compound": "O=c1[nH]c(-c2cccnc2O[C@H]2CNCCOC2c2ccc(Cl)c(Cl)c2)no1 (mixture of isomers) [Example 236, monohydrochloride]",
    "Tested On": "human dopamine transporter (Homo sapiens, UniProt Q01959)",
    "Output Unit": "%",
    "inhibition at 1 µM": 93
  },
  {
    "Compound": "CS(=O)(=O)C[C@@H]1CNCCO[C@H]1c1ccc(Cl)c(Cl)c1 [Example 92, monohydrochloride]",
    "Tested On": "human dopamine transporter (Homo sapiens, UniProt Q01959)",
    "Output Unit": "%",
    "inhibition at 1 µM": 86
  },
  {
    "Compound": "CC(=O)NC[C@@H]1CNCCO[C@H]1c1ccc(Cl)c(Cl)c1",
    "Tested On": "human dopamine transporter (Homo sapiens, UniProt Q01959)",
    "Output Unit": "%",
    "inhibition at 1 µM": 34
  },
  {
    "Compound": "NC(=O)N[C@@H]1CNCCO[C@H]1c1ccc(Cl)c(Cl)c1 [Example 262, monohydrochloride]",
    "Tested On": "human dopamine transporter (Homo sapiens, UniProt Q01959)",
    "Output Unit": "%",
    "inhibition at 1 µM": 52
  }
]
